- assayed system: human TPO receptor (hTPOR) (Homo sapiens, UniProt P40238)
- Construct: expressed in transfected cells; host or cells: BaF-B03 (murine IL-3 dependent cell line)
- protocol summary: Thrombopoietic activity: proliferation of TPO dependent BaF/hTPOR cells (WST-1, absorbance at 450 nm)
- Assay type: cell-based
- condition details: 20 h + 4 h WST-1, ED50 = half concentration of the concentration showing the maximum thrombopoietic activity, Table 1
Assignment: determine reported EC50 for the given molecules.
Report the figure in nM without appending any unit label.

Per the records, this molecule ( CCCCOC(CC)c1cccc(-c2csc(NC(=O)c3cc(F)c(C=C(C)C(=O)O)c(F)c3)n2)c1F (stereo not shown) ) has EC50 equal to 0.88

Per the records, this molecule ( CCCCCOCc1cccc(-c2csc(NC(=O)c3cc(F)c(C=C(C)C(=O)O)c(F)c3)n2)c1F ) has EC50 equal to 3.33

Per the records, this molecule ( CCCCOC(c1cccc(-c2csc(NC(=O)c3cc(F)c(/C=C(\C)C(=O)O)c(F)c3)n2)c1OC)C(C)(C)C (stereo not shown) ) has EC50 equal to 2.01

Per the records, this molecule ( COc1c(CCOCC2CCCCC2)cccc1-c1csc(NC(=O)c2cc(F)c(/C=C(\C)C(=O)O)c(F)c2)n1 ) has EC50 equal to 12.8

* * *

- assayed system: human TPO receptor (hTPOR) (Homo sapiens)
- Construct: expressed in transfected cells; host or cells: BaF-B03 (murine IL-3 dependent cell line)
- protocol summary: Thrombopoietic activity: proliferation of TPO dependent BaF/hTPOR cells (WST-1, absorbance at 450 nm)
- Format: cell-based
- condition details: 20 h + 4 h WST-1, ED50 = half concentration of the concentration showing the maximum thrombopoietic activity, Table 2
measured attribute: EC50 (µM)
Report the figure in µM without appending any unit label.

Per the records, this compound ( CO/C(=C\c1c(F)cc(C(=O)Nc2nc(-c3cccc(C(OC)C(C)(C)C)c3F)c(OC)s2)cc1F)C(=O)O (stereo not drawn) ) has EC50 equal to 0.0263

Per the records, this compound ( CCCOCCCc1cccc(-c2nc(NC(=O)c3cc(Cl)c(/C=C(\C)C(=O)O)c(Cl)c3)sc2OC)c1 ) has EC50 equal to 0.0228

Per the records, this compound ( CO/C(=C\c1c(Cl)cc(C(=O)Nc2nc(-c3cccc(CCCOCC(C)(C)C)c3F)c(OC)s2)cc1Cl)C(=O)O ) has EC50 equal to 0.0267

Per the records, this compound ( CO/C(=C\c1c(F)cc(C(=O)Nc2nc(-c3cccc(CCCOCC(C)(C)C)c3)c(OC)s2)cc1F)C(=O)O ) has EC50 equal to 0.0232

Per the records, this compound ( CCCCCCCOc1cccc(-c2csc(NC(=O)c3cc(F)c(/C=C(\OC)C(=O)O)c(F)c3)n2)c1OC ) has EC50 equal to 0.0205

Per the records, this compound ( COc1cccc(-c2csc(NC(=O)c3cc(Cl)c(/C=C(\C)C(=O)O)c(Cl)c3)n2)c1F ) has EC50 equal to 0.0235

Per the records, this compound ( CCCCOCCc1cccc(-c2csc(NC(=O)c3cc(Cl)c(/C=C(\C)C(=O)O)c(Cl)c3)n2)c1OC ) has EC50 equal to 0.021

Per the records, this compound ( CO/C(=C\c1c(F)cc(C(=O)Nc2nc(-c3cccc(COCCC(C)(C)C)c3OC)cs2)cc1F)C(=O)O ) has EC50 equal to 0.0254

Per the records, this compound ( COc1c(CCOCCCCCl)cccc1-c1csc(NC(=O)c2cc(Cl)c(/C=C(\C)C(=O)O)c(Cl)c2)n1 ) has EC50 equal to 0.0286

Per the records, this compound ( CCCCCCOCCc1cccc(-c2csc(NC(=O)c3cc(Cl)c(/C=C(\OC)C(=O)O)c(Cl)c3)n2)c1OC ) has EC50 equal to 0.0258

Per the records, this compound ( COc1c(CCCOCC2CCC2)cccc1-c1csc(NC(=O)c2cc(F)c(/C=C(\C)C(=O)O)c(F)c2)n1 ) has EC50 equal to 0.0244

Per the records, this compound ( COc1c(OCCC2CCCCC2)cccc1-c1csc(NC(=O)c2cc(Cl)c(/C=C(\C)C(=O)O)c(Cl)c2)n1 ) has EC50 equal to 0.021

Per the records, this compound ( CCC(CC)COCCCc1cccc(-c2csc(NC(=O)c3cc(Cl)c(/C=C(\C)C(=O)O)c(Cl)c3)n2)c1OC ) has EC50 equal to 0.0225

Per the records, this compound ( CO/C(=C\c1c(F)cc(C(=O)Nc2nc(-c3cccc(C(CCOC(C)C)OC)c3F)cs2)cc1F)C(=O)O (stereo not drawn) ) has EC50 equal to 0.0242

Per the records, this compound ( CO/C(=C\c1c(Cl)cc(C(=O)Nc2nc(-c3cccc(CCCOCC(C)(C)C)c3)c(OC)s2)cc1Cl)C(=O)O ) has EC50 equal to 0.0243

* * *

- assayed system: human TPO receptor (hTPOR) (Homo sapiens, UniProt P40238)
- Construct: expressed in transfected cells; host or cells: BaF-B03 (murine IL-3 dependent cell line)
- Sequence (P40238 26-635): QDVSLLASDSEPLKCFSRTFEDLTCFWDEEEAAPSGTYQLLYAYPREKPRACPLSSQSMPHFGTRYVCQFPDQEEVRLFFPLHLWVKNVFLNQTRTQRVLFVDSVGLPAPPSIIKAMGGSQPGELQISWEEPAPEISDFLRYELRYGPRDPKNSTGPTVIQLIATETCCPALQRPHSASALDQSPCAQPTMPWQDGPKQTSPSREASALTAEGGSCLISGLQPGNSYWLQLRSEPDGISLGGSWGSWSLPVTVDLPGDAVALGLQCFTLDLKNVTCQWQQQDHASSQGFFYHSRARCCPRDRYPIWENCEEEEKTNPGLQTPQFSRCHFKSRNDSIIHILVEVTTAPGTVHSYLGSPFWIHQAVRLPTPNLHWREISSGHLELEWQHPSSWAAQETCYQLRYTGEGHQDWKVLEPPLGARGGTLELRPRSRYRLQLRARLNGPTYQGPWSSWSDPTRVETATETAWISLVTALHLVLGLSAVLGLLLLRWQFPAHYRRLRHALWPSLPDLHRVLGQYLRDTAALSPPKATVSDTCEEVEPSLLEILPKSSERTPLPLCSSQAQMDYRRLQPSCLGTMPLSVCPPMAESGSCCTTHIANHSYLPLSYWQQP
- protocol summary: Thrombopoietic activity: proliferation of TPO dependent BaF/hTPOR cells (WST-1, absorbance at 450 nm)
- Assay type: cell-based
- condition details: 20 h + 4 h WST-1, ED50 = half concentration of the concentration showing the maximum thrombopoietic activity, Table 1
Rule: EC50 below 4 nM gives YES, anything at or above gives NO.

Query string: Is 4 nM strictly greater than the compound's reported EC50? compound: CCCCCCCCCCCC(OC)c1cccc(-c2csc(NC(=O)c3cc(F)c(C=C(C)C(=O)O)c(F)c3)n2)c1F (stereo not shown)
Result string: YES

Query string: Is 4 nM strictly greater than the compound's reported EC50? compound: COc1c(CCCOCCC(C)C)cccc1-c1csc(NC(=O)c2cc(Cl)c(/C=C(\C)C(=O)O)c(Cl)c2)n1
Result string: NO

Query string: Is 4 nM strictly greater than the compound's reported EC50? compound: COC(c1cccc(-c2csc(NC(=O)c3cc(F)c(C=C(C)C(=O)O)c(F)c3)n2)c1F)(C(C)C)C(C)C
Result string: YES

Query string: Is 4 nM strictly greater than the compound's reported EC50? compound: CC(=Cc1c(Cl)cc(C(=O)Nc2nc(-c3cccc(CCCOCCC(C)(C)C)c3F)cs2)cc1Cl)C(=O)O
Result string: YES

Query string: Is 4 nM strictly greater than the compound's reported EC50? compound: CCCCCCCCCCC(OC)c1cccc(-c2csc(NC(=O)c3cc(F)c(C=C(C)C(=O)O)c(F)c3)n2)c1F (stereo not shown)
Result string: YES

Query string: Is 4 nM strictly greater than the compound's reported EC50? compound: CCCCCOCCCC(OC)c1cccc(-c2csc(NC(=O)c3cc(F)c(C=C(C)C(=O)O)c(F)c3)n2)c1F (stereo not shown)
Result string: YES

Query string: Is 4 nM strictly greater than the compound's reported EC50? compound: CCCCCCOCCC(OC)c1cccc(-c2csc(NC(=O)c3cc(F)c(C=C(C)C(=O)O)c(F)c3)n2)c1F (stereo not shown)
Result string: YES

Query string: Is 4 nM strictly greater than the compound's reported EC50? compound: CC(=Cc1c(F)cc(C(=O)Nc2nc3c(s2)CCc2c(CCCOC(C)C)cccc2-3)cc1F)C(=O)O
Result string: YES

Query string: Is 4 nM strictly greater than the compound's reported EC50? compound: CCOCCCc1cccc2c1CCc1sc(NC(=O)c3cc(Cl)c(C=C(C)C(=O)O)c(Cl)c3)nc1-2
Result string: YES

Query string: Is 4 nM strictly greater than the compound's reported EC50? compound: CCCCCCCCOc1cccc(-c2csc(NC(=O)c3cc(Cl)c(/C=C(\C)C(=O)O)c(Cl)c3)n2)c1OC
Result string: NO

Query string: Is 4 nM strictly greater than the compound's reported EC50? compound: CCCCCCCCCCC(OC)c1cccc(-c2csc(NC(=O)c3cc(Cl)c(/C=C(\OC)C(=O)O)c(Cl)c3)n2)c1OC (stereo not shown)
Result string: NO

Query string: Is 4 nM strictly greater than the compound's reported EC50? compound: CCCCCCCCOc1cccc(-c2csc(NC(=O)c3cc(F)c(/C=C(\C)C(=O)O)c(F)c3)n2)c1OC
Result string: NO

Query string: Is 4 nM strictly greater than the compound's reported EC50? compound: COc1c(COCCCC2CCCCC2)cccc1-c1csc(NC(=O)c2cc(F)c(/C=C(\C)C(=O)O)c(F)c2)n1
Result string: YES

Query string: Is 4 nM strictly greater than the compound's reported EC50? compound: CCCCCCOC(CC)c1cccc(-c2csc(NC(=O)c3cc(F)c(C=C(C)C(=O)O)c(F)c3)n2)c1F (stereo not shown)
Result string: YES

Query string: Is 4 nM strictly greater than the compound's reported EC50? compound: COc1c(CCCOCC(C)(C)C)cccc1-c1csc(NC(=O)c2cc(F)c(/C=C(\C)C(=O)O)c(F)c2)n1
Result string: NO

Query string: Is 4 nM strictly greater than the compound's reported EC50? compound: COc1c(CCCOCC(C)C)cccc1-c1csc(NC(=O)c2cc(F)c(/C=C(\C)C(=O)O)c(F)c2)n1
Result string: NO

Query string: Is 4 nM strictly greater than the compound's reported EC50? compound: COc1c(COCC(C)(C)C)cccc1-c1csc(NC(=O)c2cc(F)c(/C=C(\C)C(=O)O)c(F)c2)n1
Result string: NO

Query string: Is 4 nM strictly greater than the compound's reported EC50? compound: CCCCCCOCCCc1cccc(-c2csc(NC(=O)c3cc(F)c(C=C(C)C(=O)O)c(F)c3)n2)c1F
Result string: YES

Query string: Is 4 nM strictly greater than the compound's reported EC50? compound: CCCCOCCCC(OCCCC)c1cccc(-c2csc(NC(=O)c3cc(Cl)c(C=C(C)C(=O)O)c(Cl)c3)n2)c1F (stereo not shown)
Result string: YES

Query string: Is 4 nM strictly greater than the compound's reported EC50? compound: CCCCOCCCc1cccc(-c2csc(NC(=O)c3cc(Cl)c(C=C(C)C(=O)O)c(Cl)c3)n2)c1F
Result string: YES

Query string: Is 4 nM strictly greater than the compound's reported EC50? compound: CCCCCCCOCCc1cccc(-c2csc(NC(=O)c3cc(F)c(/C=C(\C)C(=O)O)c(F)c3)n2)c1OC
Result string: NO

Query string: Is 4 nM strictly greater than the compound's reported EC50? compound: CCCCOC(CC)c1cccc(-c2csc(NC(=O)c3cc(Cl)c(C=C(C)C(=O)O)c(Cl)c3)n2)c1F (stereo not shown)
Result string: YES

Query string: Is 4 nM strictly greater than the compound's reported EC50? compound: CCCOC(C)c1cccc(-c2csc(NC(=O)c3cc(Cl)c(C=C(C)C(=O)O)c(Cl)c3)n2)c1F (stereo not shown)
Result string: YES

Query string: Is 4 nM strictly greater than the compound's reported EC50? compound: COc1c(OCCC2CCCCC2)cccc1-c1csc(NC(=O)c2cc(F)c(/C=C(\C)C(=O)O)c(F)c2)n1
Result string: NO

Query string: Is 4 nM strictly greater than the compound's reported EC50? compound: CCCCOC(CCCC)c1cccc(-c2csc(NC(=O)c3cc(Cl)c(C=C(C)C(=O)O)c(Cl)c3)n2)c1F (stereo not shown)
Result string: YES

Query string: Is 4 nM strictly greater than the compound's reported EC50? compound: CCCCCCOC(C)c1cccc(-c2csc(NC(=O)c3cc(Cl)c(C=C(C)C(=O)O)c(Cl)c3)n2)c1F (stereo not shown)
Result string: YES

Query string: Is 4 nM strictly greater than the compound's reported EC50? compound: CCCCCCC(OC)c1cccc(-c2csc(NC(=O)c3cc(F)c(C=C(C)C(=O)O)c(F)c3)n2)c1F (stereo not shown)
Result string: YES
